Assay Target: IDH1 R132H (Homo sapiens, UniProt O75874, R132H)
Sequence (O75874 whole entry R132H): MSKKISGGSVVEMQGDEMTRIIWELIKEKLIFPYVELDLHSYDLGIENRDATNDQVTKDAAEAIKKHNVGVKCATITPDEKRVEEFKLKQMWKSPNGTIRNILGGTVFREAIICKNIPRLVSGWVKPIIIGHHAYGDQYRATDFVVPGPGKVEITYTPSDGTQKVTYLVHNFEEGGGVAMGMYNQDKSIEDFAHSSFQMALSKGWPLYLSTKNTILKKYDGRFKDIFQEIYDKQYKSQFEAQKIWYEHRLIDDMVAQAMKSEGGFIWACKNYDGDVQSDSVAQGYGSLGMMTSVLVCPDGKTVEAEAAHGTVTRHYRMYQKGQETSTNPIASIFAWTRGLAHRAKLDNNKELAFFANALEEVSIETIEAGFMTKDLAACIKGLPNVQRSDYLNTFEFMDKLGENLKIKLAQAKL
Assay Details: High Throughput Screening (HTS) for IDH1 R132H inhibitors (resazurin/NADPH fluorescence assay)
Format: biochemical
Condition Parameters: IDH1m; assay similar to Example 1; class symbols
pIC50: −log10 of the molar value.
Reported Property: pIC50

Lab book: pIC50 of "Cc1ccc(S(=O)(=O)Nc2ccc(C(C)C)cc2)cc1C(=O)N1CCN(c2ccccc2)CC1" noted as 4.30 to 6.00

pIC50 in this record for "CCCCc1ccc(NS(=O)(=O)c2cccc(C(=O)N3CCN(c4ncccn4)CC3)c2)cc1" : 4.30 to 6.00

# pIC50 of "COc1ccc(NS(=O)(=O)c2ccc(C)c(C(=O)N3CCN(c4ccccc4OC)CC3)c2)cc1" = 4.30 to 6.00

The recorded pIC50 for "COc1ccccc1N1CCN(C(=O)c2cc(S(=O)(=O)Nc3ccc(OCC4CC4)cc3)ccc2C)CC1" is 4.30 to 6.00

// pIC50 value for "CCCCc1ccc(C(=O)Nc2ccc(C)c(C(=O)N3CCN(c4ccccc4OC)CC3)c2)cc1" : 4.30 to 6.00

###

Task for the reader: assign each of the following compounds its reported pIC50.
Assay Target: IDH1 R132H (Homo sapiens, UniProt O75874, R132H)
Assay Details: High Throughput Screening (HTS) for IDH1 R132H inhibitors (resazurin/NADPH fluorescence assay)
Type: biochemical
Condition Parameters: IDH1m; assay similar to Example 1; class symbols
pIC50: −log10 of the molar value.

// sample CCCCc1ccc(NS(=O)(=O)c2ccc(C)c(C(=O)N3CCN(CC(C)c4ccccc4)CC3)c2)cc1 (centres unmarked) , its pIC50 was 4.30 to 6.00

The compound "COc1ccccc1N1CCCN(C(=O)c2cccc(S(=O)(=O)Nc3ccc(C(C)C)cc3)c2)CC1" showed pIC50 equal to 4.30 to 6.00

Measured pIC50, "CCCCc1ccc(NS(=O)(=O)c2cc3c(c(C(=O)N4CCN(c5ccccc5OC)CC4)c2)OCCO3)cc1" : 4.30 to 6.00

pIC50 recorded for this compound, "CCCCc1ccc(NS(=O)(=O)c2cccc(C(=O)N3CCN(c4ncc(C)cc4Cl)CC3)c2)cc1" , is 4.30 to 6.00

Field pIC50 (entry "COc1ccc(NS(=O)(=O)c2cccc(C(=O)N3CCN(c4ccccc4OC)CC3)c2)cc1" ) reads < 4.30

Consider "COc1ccccc1N1CCN(C(=O)c2cc(S(=O)(=O)Nc3ccc(C)c4cc[nH]c34)ccc2C)CC1" . Its measured pIC50 is 4.30 to 6.00

// pIC50 value for "Cc1cc(F)ccc1NS(=O)(=O)c1cccc(C(=O)N2CCN(c3ccccn3)CC2)c1" : < 4.30

pIC50 measured on CCOC(=O)C(C)Oc1ccc(NS(=O)(=O)c2ccc(C)c(C(=O)N3CCN(c4ccccc4OC)CC3)c2)cc1 (centres unmarked) = 4.30 to 6.00

Entry under test: "CCCCc1ccc(NS(=O)(=O)c2ccc(C)c(C(=O)N3CCN(c4ccccc4)CC3)c2)cc1" . Its pIC50 was 4.30 to 6.00

Sample "CCCCc1ccc(NS(=O)(=O)c2ccc(C)c(C(=O)N3CCN(c4ccccc4OCC4CC4)CC3)c2)cc1" ; pIC50 observed: 4.30 to 6.00

Lab note: "CCCCc1ccc(NS(=O)(=O)c2ccc(C)c(C(=O)N3CCN(c4ccccc4OCCc4ccccc4)CC3)c2)cc1" gave pIC50 of 4.30 to 6.00

Form: compound = "COc1ccccc1N1CCN(C(=O)c2cc(S(=O)(=O)Nc3ccc4[nH]ccc4c3)ccc2C)CC1" ; pIC50 = 4.30 to 6.00

Consider "COc1ccccc1N1CCCN(C(=O)c2cccc(S(=O)(=O)Nc3ccc(Cl)cc3)c2)CC1" . Its measured pIC50 is < 4.30

The value of pIC50 measured for the compound "CCCCc1ccc(NS(=O)(=O)c2ccc(C)c(C(=O)N3CCN(c4ccc(OC)c(OC)c4)CC3)c2)cc1" turned out to be 4.30 to 6.00

Measured pIC50 of "COc1ccccc1N1CCN(C(=O)c2cccc(S(=O)(=O)Nc3ccccc3F)c2)CC1" : < 4.30

Per the record, "COc1ccccc1N1CCN(C(=O)c2cc(S(=O)(=O)Nc3ccc(C)c4cccnc34)ccc2C)CC1" has pIC50 of 4.30 to 6.00

Measured pIC50 of "COc1ccccc1N1CCN(C(=O)c2cccc(NS(=O)(=O)c3cccc4cccnc34)c2)CC1" : < 4.30

###

Assay Target: IDH1 R132H (Homo sapiens, UniProt O75874, R132H)
Assay Details: High Throughput Screening (HTS) for IDH1 R132H inhibitors (resazurin/NADPH fluorescence assay)
Format: biochemical
Condition Parameters: IDH1m; assay similar to Example 1; class symbols
Reported Property: IC50

The value of IC50 recorded for "CCCCOc1ccc(NS(=O)(=O)c2ccc(C)c(C(=O)N3CCN(c4ccccc4OC)CC3)c2)cc1" when tested on IDH1 R132H (Homo sapiens, UniProt O75874, R132H) reads 1 to 50 µM

Test item "CCCCc1ccc(NS(=O)(=O)c2ccc(C)c(C(=O)N3CCN(c4ccccc4OCc4ccccc4)CC3)c2)cc1" ; IDH1 R132H (Homo sapiens, UniProt O75874, R132H); reported IC50 was 1 to 50 µM

The compound "CCOc1ccc(NS(=O)(=O)c2cccc(C(=O)N3CCCN(c4ccccc4OC)CC3)c2)cc1" , tested on IDH1 R132H (Homo sapiens, UniProt O75874, R132H), showed IC50 of > 50 µM

For "COc1ccccc1N1CCN(C(=O)c2cc(S(=O)(=O)Nc3cccc4cc[nH]c34)ccc2C)CC1" on IDH1 R132H (Homo sapiens, UniProt O75874, R132H), measured IC50 was 1 to 50 µM

Given the compound "O=C(c1cccc(S(=O)(=O)Nc2ccc(Cl)cc2)c1)N1CCN(c2ccccc2)CC1" and test system IDH1 R132H (Homo sapiens, UniProt O75874, R132H), the measured IC50 is > 50 µM

Record for "CCCCc1ccc(NS(=O)(=O)c2ccc(Br)c(C(=O)N3CCN(c4ccccc4OC)CC3)c2)cc1" under target or system IDH1 R132H (Homo sapiens, UniProt O75874, R132H): IC50 reported as 1 to 50 µM

I looked up "COc1ccccc1N1CCN(C(=O)c2cc(S(=O)(=O)Nc3ccc(OC(C)C)cc3)ccc2C)CC1" and its IC50 for IDH1 R132H (Homo sapiens, UniProt O75874, R132H) was 1 to 50 µM

The recorded IC50 with IDH1 R132H (Homo sapiens, UniProt O75874, R132H) for "CCCCc1ccc(NS(=O)(=O)c2ccc(N3CCCC3)c(C(=O)N3CCN(c4ccccc4OC)CC3)c2)cc1" was 1 to 50 µM

Summary: "COc1ccccc1N1CCCN(C(=O)c2cccc(S(=O)(=O)Nc3ccccc3F)c2)CC1" , IDH1 R132H (Homo sapiens, UniProt O75874, R132H), IC50 = 1 to 50 µM

###

Assay Target: IDH1 R132H (Homo sapiens, UniProt O75874, R132H)
Assay Details: High Throughput Screening (HTS) for IDH1 R132H inhibitors (resazurin/NADPH fluorescence assay)
Format: biochemical
Condition Parameters: IDH1m; assay similar to Example 1; class symbols
pIC50: −log10 of the molar value.
So I've got a bunch of compounds here, and I need their pIC50 values.

The recorded pIC50 for entry "C#CCc1ccc(S(=O)(=O)Nc2ccc(CCCC)cc2)cc1C(=O)N1CCN(c2ccccc2OC)CC1" equals 4.30 to 6.00

Entry under test: "CCCCc1ccc(NS(=O)(=O)c2ccc(C)c(C(=O)N3CCN(Cc4ccccc4C)CC3)c2)cc1" . Its pIC50 was 4.30 to 6.00

Value of measured pIC50 for the entry "COCCOCOc1ccc(NS(=O)(=O)c2ccc(C)c(C(=O)N3CCN(c4ccccc4OC)CC3)c2)cc1" : 4.30 to 6.00

Looking up "CCCCc1ccc(NS(=O)(=O)c2ccc(C)c(C(=O)N3CCN(c4ccc(F)cc4)CC3)c2)cc1" , I see its pIC50 listed as 4.30 to 6.00

For record "CCCCc1ccc(NS(=O)(=O)c2ccc(C)c(C(=O)N3CCN(c4ccccc4OC(C)C)CC3)c2)cc1" the listed pIC50 is 4.30 to 6.00

The measured pIC50 associated with "CC(C)(C)c1ccc(NS(=O)(=O)c2cccc(C(=O)N3CCN(c4ccccc4)CC3)c2)cc1" reads 4.30 to 6.00

# pIC50 (compound: "CCCCc1ccc(NS(=O)(=O)c2ccc(C)c(C(=O)N3CCN(c4cccc(Cl)c4)CC3)c2)cc1" ) is 4.30 to 6.00

"CCCCc1ccc(NS(=O)(=O)c2ccc(C)c(C(=O)N3CCN(Cc4ccccc4CC)CC3)c2)cc1" yielded pIC50 of 4.30 to 6.00
